Tested on: HOP-92 NSCLC
Test: NCI-60 one-dose screen, 48 h (100 = growth as untreated, 0 = no growth, -100 = all killed)
Conditions: 10 µM unless noted
Compounds without any hit were thinned out: in the full panel of roughly 83,000, 20% have a hit.
Grouping key: growth. Bins: band A: < 50%; band B: ≥ 50% and < 90%; band C: ≥ 90%

Check out these entries, answers already filled in.
{"compound": "Cc1ccc2c(n1)C(=O)C(Br)=C(C1CCCC1)C2=O", "class": "band C"}
{"compound": "CCCCCN1C(=O)/C(=c2\\sc3n(c2=O)C2C(NN=3)N(CC)C(=O)N2CC)c2ccccc21 (stereo not given)", "class": "band A"}

Categorize the following entry: O=C(N/N=C/c1c(Cl)cccc1Cl)c1cccnc1Nc1cccc(C(F)(F)F)c1
band A

Categorize the following entry: COC(=O)Nc1nc2ccc(S(=O)c3ccccc3)cc2[nH]1 (stereo not given)
band B

Categorize the following entry: COC(=O)c1c2c(c(C)[n+]([O-])c1C)C(=O)C(NCc1cccc(OC)c1)=CC2=O
band B

Origin of the recorded values: PubChem BioAssay (NCI)
